# target_under_test: Cytochrome P450 2D6 (Homo sapiens, UniProt P10635)
# Sequence (P10635 whole entry): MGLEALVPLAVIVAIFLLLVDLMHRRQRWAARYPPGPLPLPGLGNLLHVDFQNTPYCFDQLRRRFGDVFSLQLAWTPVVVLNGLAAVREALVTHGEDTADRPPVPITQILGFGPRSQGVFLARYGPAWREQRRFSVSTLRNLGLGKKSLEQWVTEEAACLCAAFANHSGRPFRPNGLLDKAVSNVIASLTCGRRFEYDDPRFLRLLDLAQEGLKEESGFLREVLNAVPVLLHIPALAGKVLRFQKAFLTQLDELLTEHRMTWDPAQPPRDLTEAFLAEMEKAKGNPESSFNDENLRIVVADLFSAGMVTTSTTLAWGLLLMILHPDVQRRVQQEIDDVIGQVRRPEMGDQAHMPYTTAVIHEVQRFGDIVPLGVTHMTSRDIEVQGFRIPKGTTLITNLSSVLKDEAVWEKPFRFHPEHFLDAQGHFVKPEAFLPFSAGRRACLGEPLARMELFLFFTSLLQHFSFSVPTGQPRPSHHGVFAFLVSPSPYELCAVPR
property_label: IC50 (µM)
Numbers only; they are read as µM.

-- ask Give recorded IC50 with Cytochrome P450 2D6 (Homo sapiens, UniProt P10635) for the following compound: "Cc1cc(/C=C/C#N)cc(C)c1Oc1ccnc(Nc2ccc(N3CCS(=O)(=O)CC3)c(F)c2)n1"
-- reply 14.8

====

# target_under_test: Human immunodeficiency virus type 1 reverse transcriptase (Human immunodeficiency virus 1, UniProt Q72547)
Property: pIC50; scope: individual molecules
Scale: pIC50 equals -log10([C]), with [C] in mol/L.

// known answers, use as guide
smiles_string	property_label	number
Cc1cc(/C=C/C#N)cc(C)c1Oc1ccnc(Nc2ccc(N3CC[S+]([O-])CC3)c(F)c2)n1	pIC50	7.57
Cc1cc(C#N)cc(C)c1Oc1ccnc(Nc2ccc(N3CCN(S(=O)(=O)N(C)C)CC3)c(F)c2)n1	pIC50	6.82
CCS(=O)(=O)N1CCC(c2ccc(Nc3nccc(Oc4c(C)cc(/C=C/C#N)cc4C)n3)cc2)CC1	pIC50	7.15
Cc1cc(/C=C/C#N)cc(C)c1Oc1ccnc(Nc2ccc(N3CCN(S(=O)(=O)C4CC4)CC3)cc2)n1	pIC50	7.08
Cc1cc(/C=C/C#N)cc(C)c1Oc1ccnc(Nc2ccc(C3CCN(S(=O)(=O)C4CC4)CC3)cc2)n1	pIC50	7.10
Cc1cc(/C=C/C#N)cc(C)c1Oc1ccnc(Nc2ccc(N3CCS(=O)(=O)CC3)c(F)c2)n1	pIC50	7.64
Cc1cc(/C=C/C#N)cc(C)c1Oc1ccnc(Nc2ccc(C3CCN(S(C)(=O)=O)CC3)cc2)n1	pIC50	7.36
Cc1cc(/C=C/C#N)cc(C)c1Oc1ccnc(Nc2ccc(N3CCN(S(C)(=O)=O)CC3)cc2)n1	pIC50	7.19
Cc1cc(/C=C/C#N)cc(C)c1Oc1ccnc(Nc2ccc(N3CCN(S(=O)(=O)C(C)C)CC3)c(F)c2)n1	pIC50	7.01
CCS(=O)(=O)N1CCN(c2ccc(Nc3nccc(Oc4c(C)cc(/C=C/C#N)cc4C)n3)cc2)CC1	pIC50	7.00

-- ask Can you look up the measured pIC50 of "Cc1cc(C#N)cc(C)c1Oc1ccnc(Nc2ccc(N3CCN(S(=O)(=O)C4CC4)CC3)c(F)c2)n1" for me?
-- reply 7.11

-- ask Can you look up the measured pIC50 of "CCS(=O)(=O)N1CCN(c2ccc(Nc3nccc(Oc4c(C)cc(/C=C/C#N)cc4C)n3)cc2F)CC1" for me?
-- reply 7.27

-- ask Can you look up the measured pIC50 of "Cc1cc(/C=C/C#N)cc(C)c1Oc1ccnc(Nc2ccc(N3CCN(S(=O)(=O)N(C)C)CC3)c(F)c2)n1" for me?
-- reply 7.11

FYI, the data here is from ChEMBL document CHEMBL5620408.
